Please respond with reported pIC50 for every item in the list.
test system: IFN induction in dsDNA-stimulated human whole blood; experiment: Human whole blood assay (hWB IC50), dsDNA stimulated, IFNα2α production; assay type: cell-based; details: Table 1
Numbers only, as −log10 of the molar value.

Sample records with pIC50:
> print(dat)
                                    molecule  recorded.value
 1  Cc1cccc2c1nc1n2[C@@H]2CCN(C[C@H]2C)C(=O)CCCCCC(F)(F)c2nc(c3oc4ccccc4c3n2)N2C[C@H](C[C@H]2C(=O)O)O1            5.80
 2  CC1CCc2nc(c3oc4ccccc4c3n2)N2C[C@H](C[C@H]2C(=O)O)Oc2nc3cc(Cl)ccc3n2[C@H]2CCN(C[C@@H]2C)C(=O)CCO1 (some centres unmarked)            8.15
 3  C[C@H]1CN2CC[C@@H]1n1c(nc3ccccc31)O[C@H]1C[C@@H](C(=O)O)N(C1)c1nc(nc3c1oc1ccccc13)C(F)(F)CCCCC(F)(F)C2=O            8.10
 4  C[C@H]1CN2CC[C@@H]1n1c(nc3ccc(Cl)cc31)O[C@H]1C[C@@H](C(=O)O)N(C1)c1nc(nc3c1oc1ccccc13)CCOCCCC2=O            7.82
 5  Cc1cccc2c1nc1n2[C@H]2CCN(C[C@@H]2C)C(=O)CCCCCC(F)(F)c2nc(c3oc4ccccc4c3n2)N2C[C@H](C[C@H]2C(=O)O)O1            7.55
 6  C[C@H]1CN2CC[C@@H]1n1c(nc3cc(Cl)ccc31)O[C@H]1C[C@@H](C(=O)O)N(C1)c1nc(nc3c1oc1ccccc13)C(F)(F)CCCOCC2=O            9.00
 7  C[C@@H]1CN2CC[C@H]1n1c(nc3ccccc31)O[C@H]1C[C@@H](C(=O)O)N(C1)c1nc(nc3c1oc1ccccc13)CCCCCOC2=O            6.36
 8  C[C@H]1CN2CC[C@@H]1n1c(nc3cccc(Cl)c31)O[C@H]1C[C@@H](C(=O)O)N(C1)c1nc(nc3c1oc1ccccc13)CC(=O)NCCCC2=O (racemic)            7.46
 9  C[C@H]1CN2CC[C@@H]1n1c(nc3ccccc31)O[C@H]1C[C@@H](C(=O)O)N(C1)c1nc(nc3c1oc1ccccc13)CCCCCCC2=O (racemic)            7.07
10  C[C@@H]1CN2CC[C@H]1n1c(nc3cc(Cl)ccc31)O[C@H]1C[C@@H](C(=O)O)N(C1)c1nc(nc3c1oc1ccccc13)CCOCCCC2=O            7.06

Give one value of pIC50 per listed molecule.
1. C[C@H]1CN2CC[C@@H]1n1c(nc3ccccc31)O[C@H]1C[C@@H](C(=O)O)N(C1)c1nc(nc3c1oc1cc(Cl)ccc13)C(F)(F)CCCCCC2=O
2. C[C@H]1CN2CC[C@@H]1n1c(nc3ccc(Cl)cc31)O[C@H]1C[C@@H](C(=O)O)N(C1)c1nc(nc3c1oc1ccccc13)COCCCCC2=O
3. C[C@H]1CN2CC[C@@H]1n1c(nc3ccccc31)O[C@H]1C[C@@H](C(=O)O)N(C1)c1nc(nc3c1oc1ccccc13)CCCC(C)(C)CCC2=O
4. C[C@H]1CN2CC[C@@H]1n1c(nc3ccccc31)O[C@H]1C[C@@H](C(=O)O)N(C1)c1nc(nc3c1oc1ccccc13)CCOCCOC2=O (mixture of isomers)
5. O=C(O)[C@@H]1C[C@H]2CN1c1nc(nc3c1oc1ccccc13)COCCCC(F)(F)C(=O)N1CCC(CC1)n1c(nc3ccccc31)O2
6. C[C@H]1CN2CC[C@@H]1n1c(nc3cc(Cl)ccc31)O[C@H]1C[C@@H](C(=O)O)N(C1)c1nc(nc3c1oc1ccccc13)C(F)(F)CCCCCC2=O

[8.00, 7.92, 6.84, 6.65, 7.46, 8.30]

Each molecule below has a reported value. Please supply its pIC50.
1. C[C@H]1CN2CC[C@@H]1n1c(nc3cc(Cl)ccc31)O[C@H]1C[C@@H](C(=O)O)N(C1)c1nc(nc3c1oc1ccccc13)C(F)(F)OCCCCC2=O
2. O=C(O)[C@@H]1C[C@H]2CN1c1nc(nc3c1oc1ccccc13)CCOCCCC(=O)N1CCC(CC1)n1c(nc3cc(F)ccc31)O2
3. C[C@H]1CN2CC[C@@H]1n1c(nc3ccccc31)O[C@H]1C[C@@H](C(=O)O)N(C1)c1nc(nc3c1oc1ccccc13)CCCCCOC2=O
4. C[C@H]1CN2CC[C@@H]1n1c(nc3cc(Cl)ccc31)O[C@H]1C[C@@H](C(=O)O)N(C1)c1nc(nc3c1oc1cc(F)ccc13)CCCCOCC2=O
5. C[C@H]1CCCCC(=O)N2CCC(CC2)n2c(nc3ccccc32)O[C@H]2C[C@@H](C(=O)O)N(C2)c2nc1nc1c2oc2ccccc21
6. C[C@@H]1CCCCC(=O)N2CCC(CC2)n2c(nc3ccccc32)O[C@H]2C[C@@H](C(=O)O)N(C2)c2nc1nc1c2oc2ccccc21
7. C[C@H]1CN2CC[C@@H]1n1c(nc3ccccc31)O[C@H]1C[C@@H](C(=O)O)N(C1)c1nc(nc3c1oc1cc(F)ccc13)C(F)(F)CCCCCC2=O

8.52
7.44
7.08
8.70
7.39
7.72
8.40
